- TGT: human recombinant HDAC6 (Homo sapiens)
- Construct: purchased Calbiochem 382180
- Sequence (Q9UBN7 whole entry): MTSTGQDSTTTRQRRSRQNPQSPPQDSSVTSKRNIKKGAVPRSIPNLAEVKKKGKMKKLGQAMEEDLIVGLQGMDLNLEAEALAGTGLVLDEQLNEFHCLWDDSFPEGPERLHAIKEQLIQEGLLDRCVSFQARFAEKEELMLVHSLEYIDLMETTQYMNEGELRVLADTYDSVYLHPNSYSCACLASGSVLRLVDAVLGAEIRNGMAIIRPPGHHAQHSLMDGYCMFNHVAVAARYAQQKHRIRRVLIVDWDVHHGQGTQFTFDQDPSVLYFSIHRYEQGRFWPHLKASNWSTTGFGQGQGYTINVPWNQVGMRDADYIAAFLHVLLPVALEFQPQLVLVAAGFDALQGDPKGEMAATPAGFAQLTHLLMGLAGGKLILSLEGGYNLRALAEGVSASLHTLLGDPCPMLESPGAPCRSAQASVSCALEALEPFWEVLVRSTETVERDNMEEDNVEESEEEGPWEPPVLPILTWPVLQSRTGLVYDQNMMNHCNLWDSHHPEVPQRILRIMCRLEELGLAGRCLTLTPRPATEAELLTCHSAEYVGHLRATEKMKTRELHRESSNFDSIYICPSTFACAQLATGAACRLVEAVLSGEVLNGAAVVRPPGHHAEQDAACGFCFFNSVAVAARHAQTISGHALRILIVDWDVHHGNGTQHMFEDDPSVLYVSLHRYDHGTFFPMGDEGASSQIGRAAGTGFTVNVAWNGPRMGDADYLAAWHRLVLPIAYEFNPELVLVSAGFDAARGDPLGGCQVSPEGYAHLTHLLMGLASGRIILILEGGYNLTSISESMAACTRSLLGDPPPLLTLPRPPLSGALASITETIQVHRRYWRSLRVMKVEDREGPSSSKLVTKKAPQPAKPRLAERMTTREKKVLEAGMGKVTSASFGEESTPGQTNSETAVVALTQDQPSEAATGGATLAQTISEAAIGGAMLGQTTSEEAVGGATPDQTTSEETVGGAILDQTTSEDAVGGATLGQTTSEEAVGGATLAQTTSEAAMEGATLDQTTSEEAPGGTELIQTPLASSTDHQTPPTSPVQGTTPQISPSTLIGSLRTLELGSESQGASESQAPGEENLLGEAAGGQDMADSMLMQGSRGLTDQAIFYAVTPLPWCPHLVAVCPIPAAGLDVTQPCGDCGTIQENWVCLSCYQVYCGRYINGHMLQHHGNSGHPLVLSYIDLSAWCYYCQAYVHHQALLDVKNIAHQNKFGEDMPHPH
- ASSAY SUMMARY: HDAC6 enzyme activity inhibition assay (in vitro, fluorimetric)
- Type: biochemical
- CONDITION LABEL: HDAC6 selectivity over HDAC1
MEASUREMENT TYPE: HDAC6 selectivity (fold)

SMILES DATA	TGT	OBSERVED VALUE
C[C@@H]1CN(Cc2ccc(C(=O)NO)cc2F)C[C@H](C)N1Cc1cccc(CN2CCOCC2)c1	human recombinant HDAC6 (Homo sapiens)	>1000 fold
C[C@@H]1CN(Cc2ccc(C(=O)NO)cc2)C[C@H](C)N1Cc1cccc(OCC2CCN(CC(C)(C)F)CC2)c1	human recombinant HDAC6 (Homo sapiens)	>62 fold
C[C@@H]1CN(Cc2ccc(C(=O)NO)cc2)C[C@H](C)N1Cc1cccc(CN2CCN(Cc3ccccc3)CC2)c1	human recombinant HDAC6 (Homo sapiens)	>53 fold
